test: amyloid nucleation score (Sup35N fusion, yeast selection) (log enrichment); library NNK3; higher = more nucleation; inactive = no reads after selection;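 further: zero at mode of non-aggregating sequences after 7 days selection at 30°C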
measure: amyloid nucleation score

Examples from the recorded data:
[
  {
    "substance": "WKATNNAASVFGDLYGYYAN",
    "valueObserved": "inactive"
  },
  {
    "substance": "SGDLMEGGEYF",
    "valueObserved": "inactive"
  },
  {
    "substance": "SYLRQDDVEMAVIWTGHMSV",
    "valueObserved": "inactive"
  },
  {
    "substance": "SISPFN",
    "valueObserved": "inactive"
  },
  {
    "substance": "WSTPWMWVRFGRIDHCSLGV",
    "valueObserved": "inactive"
  }
]

Return amyloid nucleation score for the following substance: `LTIAIWVMYKDQYFCLWHLL` inactive

Return amyloid nucleation score for the following substance: `HVFFMKTEEPCTPEY` inactive

Return amyloid nucleation score for the following substance: `IYDRMGGHL` inactive

Return amyloid nucleation score for the following substance: `ALGKRSLLR` inactive

Return amyloid nucleation score for the following substance: `RKLKHLS` inactive

Return amyloid nucleation score for the following substance: `SSFDSAIEA` inactive
